Hey, just so you know, these numbers are from patent US10165776B2.

Test system: Amaranthus retroflexus
Assay: Weed foliar treatment test (Test 3, 1.0 to 2.0 leaf stage)
Assay type: in vivo
Conditions: 10 g a.i./10 a; foliar spray at 1.0 to 2.0 leaf stage of Digitaria ciliaris; 3 weeks at 25° C.
Procedure: Soil was filled into a 1/6000 are pot followed by seeding with Digitaria ciliaris, Chenopodium album and Amaranthus retroflexus, covering with soil, and cultivating in a glass greenhouse at an average atmospheric temperature of 25° C. […]
measured_parameter: herbicidal efficacy, Amaranthus retroflexus

Task: Could you share which herbicidal efficacy, Amaranthus retroflexus value was measured for N#Cc1cnn(-c2nn3c(c2Cl)CCCC3)c1NC(=O)Cc1ccccc1 ?
Result: 10 (10: 100%)

Task: And what about the compound N#Cc1cnn(-c2nn3c(c2Cl)CCCC3)c1NC(=O)CCc1ccccc1 ?
Result: 10 (10: 100%)

Task: And what about the compound Cc1ccccc1CC(=O)Nc1c(C#N)cnn1-c1nn2c(c1Cl)CCCC2 ?
Result: 10 (10: 100%)

Task: And what about the compound Cc1cccc(CC(=O)Nc2c(C#N)cnn2-c2nn3c(c2Cl)CCCC3)c1 ?
Result: 10 (10: 100%)

Task: And what about the compound O=C(Nc1c([N+](=O)[O-])cnn1-c1nn2c(c1Cl)CCCC2)c1ccccc1 [Control agent 2.19, reference compound] ?
Result: 4 (4: 40% to less than 50%)

* * *

test system: Galinsoga parviflora; assay: Weed foliar treatment test (Test 4, 4.0 to 5.0 leaf stage); type: in vivo; conditions: 10 g a.i./10 a; foliar spray at 4.0 to 5.0 leaf stage of Digitaria ciliaris (plant height 10 cm to 15 cm); 20 days at 25° C.
measured_parameter: herbicidal efficacy, Galinsoga parviflora

Example results:
N#Cc1cnn(-c2nn3c(c2Cl)CCCC3)c1NC(=O)Cc1ccc(F)cc1; 10 (10: 100%)
N#Cc1cnn(-c2nn3c(c2Cl)CCCC3)c1NC(=O)Cc1ccccc1; 10 (10: 100%)

Alright, here's another molecule for you.
Task: API: value(readout= herbicidal efficacy, Galinsoga parviflora, system= Galinsoga parviflora, query= N#Cc1cnn(-c2nn3c(c2Cl)CCC3)c1NC(=O)Cc1ccccc1 )
Result: 10 (10: 100%)

* * *

Parameter: herbicidal efficacy, Galinsoga parviflora. Scope: all listed entries.
test system: Galinsoga parviflora; test: Weed foliar treatment test (Test 4, 4.0 to 5.0 leaf stage); assay type: in vivo; settings: 10 g a.i./10 a; foliar spray at 4.0 to 5.0 leaf stage of Digitaria ciliaris (plant height 10 cm to 15 cm); 20 days at 25° C.

Example results:
N#Cc1cnn(-c2nn3c(c2Cl)CCCC3)c1NC(=O)Cc1ccc(Cl)cc1; 10 (10: 100%)
N#Cc1cnn(-c2nn3c(c2Br)CCCC3)c1NC(=O)Cc1ccccc1; 10 (10: 100%)
O=C(Cc1ccccc1)Nc1c([N+](=O)[O-])cnn1-c1nn2c(c1Cl)CCCC2; 10 (10: 100%)
N#Cc1cnn(-c2nn3c(c2Cl)CCCC3)c1NC(=O)Cc1cccc(F)c1; 10 (10: 100%)

Task: Could you share which herbicidal efficacy, Galinsoga parviflora value was measured for Cc1cccc(CC(=O)Nc2c(C#N)cnn2-c2nn3c(c2Cl)CCCC3)c1 ?
Result: 10 (10: 100%)

Task: And what about the compound O=C(Nc1c([N+](=O)[O-])cnn1-c1nn2c(c1Cl)CCCC2)c1ccccc1 [Control agent 2.19, reference compound] ?
Result: 3 (3: 30% to less than 40%)

Task: And what about the compound Cc1ccc(CC(=O)Nc2c(C#N)cnn2-c2nn3c(c2Cl)CCCC3)cc1 ?
Result: 10 (10: 100%)

Task: And what about the compound N#Cc1cnn(-c2nn3c(c2Cl)CCCC3)c1NC(=O)c1ccccc1 [Control agent 4.192, reference compound] ?
Result: 2 (2: 20% to less than 30%)

* * *

Parameter: herbicidal efficacy, Amaranthus retroflexus. Scope: all listed entries.
tested on: Amaranthus retroflexus; assay: Farming soil treatment test; type: in vivo; details: 5 g a.i./10 a; soil surface spray prior to weed growth; 30 days at 30° C.

Example results:
N#Cc1cnn(-c2nn3c(c2Cl)CCCC3)c1NC(=O)Cc1ccccc1; 9 (9: 90% to less than 100%)
N#Cc1cnn(-c2nn3c(c2Cl)CCCC3)c1NC(=O)Cc1cccc(F)c1; 9 (9: 90% to less than 100%)

Task: Could you share which herbicidal efficacy, Amaranthus retroflexus value was measured for Cc1ccccc1CC(=O)Nc1c(C#N)cnn1-c1nn2c(c1Cl)CCCC2 ?
Result: 9 (9: 90% to less than 100%)

Task: And what about the molecule O=C(Nc1c([N+](=O)[O-])cnn1-c1nn2c(c1Cl)CCCC2)c1ccccc1 [Control agent 2.19, reference compound] ?
Result: 1 (1: 10% to less than 20%)

Task: And what about the molecule Cc1cccc(CC(=O)Nc2c(C#N)cnn2-c2nn3c(c2Cl)CCCC3)c1 ?
Result: 9 (9: 90% to less than 100%)

Task: And what about the molecule N#Cc1cnn(-c2nn3c(c2Cl)CCCC3)c1NC(=O)CCc1ccccc1 ?
Result: 10 (10: 100%)

Task: And what about the molecule N#Cc1cnn(-c2nn3c(c2Cl)CCCC3)c1NC(=O)Cc1ccc(F)cc1 ?
Result: 10 (10: 100%)

Task: And what about the molecule O=C(Cc1ccccc1)Nc1c([N+](=O)[O-])cnn1-c1nn2c(c1Cl)CCCC2 ?
Result: 9 (9: 90% to less than 100%)

* * *

tested on: Monochoria vaginalis; test: Paddy herbicidal activity test; type: in vivo; details: 5 g a.i./10 a; irrigated pot, treated at 3.5 leaf stage of Echinochloa crus-galli; 30 days at 30° C.
measured_parameter: herbicidal efficacy, Monochoria vaginalis

O=C(Cc1ccccc1)Nc1c([N+](=O)[O-])cnn1-c1nn2c(c1Cl)CCCC2; 10 (10: 100%)
Cc1ccccc1CC(=O)Nc1c(C#N)cnn1-c1nn2c(c1Cl)CCCC2; 10 (10: 100%)
N#Cc1cnn(-c2nn3c(c2Cl)CCCC3)c1NC(=O)Cc1cccc(F)c1; 9 (9: 90% to less than 100%)
N#Cc1cnn(-c2nn3c(c2Cl)CCCC3)c1NC(=O)Cc1ccc(F)cc1; 10 (10: 100%)

Task: Could you share which herbicidal efficacy, Monochoria vaginalis value was measured for N#Cc1cnn(-c2nn3c(c2Cl)CCCC3)c1NC(=O)c1ccccc1 [Control agent 4.192, reference compound] ?
Result: 2 (2: 20% to less than 30%)

* * *

tested on: Chenopodium album; test: Farming soil treatment test; assay type: in vivo; conditions: 10 g a.i./10 a; soil surface spray prior to weed growth; 30 days at 30° C.
measured_parameter: herbicidal efficacy, Chenopodium album

Example results:
O=C(Nc1c([N+](=O)[O-])cnn1-c1nn2c(c1Cl)CCCC2)c1ccccc1 [Control agent 2.19, reference compound]; 4 (4: 40% to less than 50%)
Cc1cccc(CC(=O)Nc2c(C#N)cnn2-c2nn3c(c2Cl)CCCC3)c1; 10 (10: 100%)
N#Cc1cnn(-c2nn3c(c2Cl)CCCC3)c1NC(=O)CCc1ccccc1; 10 (10: 100%)
N#Cc1cnn(-c2nn3c(c2Cl)CCCC3)c1NC(=O)Cc1cccc(F)c1; 10 (10: 100%)
N#Cc1cnn(-c2nn3c(c2Cl)CCCC3)c1NC(=O)Cc1ccc(F)cc1; 10 (10: 100%)
O=C(Cc1ccccc1)Nc1c([N+](=O)[O-])cnn1-c1nn2c(c1Cl)CCCC2; 10 (10: 100%)
N#Cc1cnn(-c2nn3c(c2Cl)CCCC3)c1NC(=O)c1ccccc1 [Control agent 4.192, reference compound]; 3 (3: 30% to less than 40%)
N#Cc1cnn(-c2nn3c(c2Cl)CCCC3)c1NC(=O)Cc1ccccc1; 10 (10: 100%)

Task: Could you share which herbicidal efficacy, Chenopodium album value was measured for Cc1ccccc1CC(=O)Nc1c(C#N)cnn1-c1nn2c(c1Cl)CCCC2 ?
Result: 10 (10: 100%)

* * *

Parameter: herbicidal efficacy, Chenopodium album. Scope: all listed entries.
test system: Chenopodium album; assay: Farming soil treatment test; format: in vivo; conditions: 5 g a.i./10 a; soil surface spray prior to weed growth; 30 days at 30° C.

Example results:
N#Cc1cnn(-c2nn3c(c2Cl)CCCC3)c1NC(=O)c1ccccc1 [Control agent 4.192, reference compound]; 2 (2: 20% to less than 30%)
Cc1cccc(CC(=O)Nc2c(C#N)cnn2-c2nn3c(c2Cl)CCCC3)c1 [Compound 9]; 9 (9: 90% to less than 100%)
O=C(Cc1ccccc1)Nc1c([N+](=O)[O-])cnn1-c1nn2c(c1Cl)CCCC2 [Compound 5]; 9 (9: 90% to less than 100%)
O=C(Nc1c([N+](=O)[O-])cnn1-c1nn2c(c1Cl)CCCC2)c1ccccc1 [Control agent 2.19, reference compound]; 3 (3: 30% to less than 40%)
N#Cc1cnn(-c2nn3c(c2Cl)CCCC3)c1NC(=O)Cc1ccccc1 [Compound 3]; 9 (9: 90% to less than 100%)
N#Cc1cnn(-c2nn3c(c2Cl)CCCC3)c1NC(=O)Cc1ccc(F)cc1 [Compound 15]; 10 (10: 100%)
N#Cc1cnn(-c2nn3c(c2Cl)CCCC3)c1NC(=O)CCc1ccccc1 [Compound 19]; 10 (10: 100%)
N#Cc1cnn(-c2nn3c(c2Cl)CCCC3)c1NC(=O)Cc1cccc(F)c1 [Compound 11]; 10 (10: 100%)

Alright, here's another compound for you.
Task: API: value(readout= herbicidal efficacy, Chenopodium album, system= Chenopodium album, query= Cc1ccccc1CC(=O)Nc1c(C#N)cnn1-c1nn2c(c1Cl)CCCC2 [Compound 6] )
Result: 9 (9: 90% to less than 100%)
